FYI, the data here is from ChEMBL document CHEMBL1144550.

Item-by-item account of pKd
experiment: Effect on DNA binding assessed as binding to HT3AGTA synthetic oligo sequence code by measuring fluorescence stimulation due to AT base pairs next to bulge in bulge binding assay; design: species or system Homo sapiens
pKd: −log10 of the molar value.

Smi | pKd
CN[C@H]1[C@@H](O[C@H]2c3cc4ccccc4cc3[C@H]3[C@@H]2CC[C@]32C(=O)C=Cc3ccc(OC)cc32)O[C@H](C)[C@H](O)[C@@H]1O | 6.66
CN[C@H]1[C@@H](O[C@@H]2c3cc4ccccc4cc3[C@@H]3[C@H]2CC[C@@]32C(=O)C=Cc3ccc(OC)cc32)O[C@H](C)[C@H](O)[C@@H]1O | 5.85

====

Item-by-item account of pKd
assay: Effect on DNA binding assessed as binding to HT3GATC synthetic oligo sequence code by measuring fluorescence quenching due to GC base pairs next to bulge in bulge binding assay; set-up: species or system Homo sapiens
pKd: −log10 of the molar value.

Smi | pKd
CN[C@H]1[C@@H](O[C@H]2c3cc4ccccc4cc3[C@H]3[C@@H]2CC[C@]32C(=O)C=Cc3ccc(OC)cc32)O[C@H](C)[C@H](O)[C@@H]1O | 6.62
CN[C@H]1[C@@H](O[C@@H]2c3cc4ccccc4cc3[C@@H]3[C@H]2CC[C@@]32C(=O)C=Cc3ccc(OC)cc32)O[C@H](C)[C@H](O)[C@@H]1O | 6.82

====

Item-by-item account of Kd
experiment: Effect on DNA binding assessed as binding to HT4AGTT synthetic oligo sequence code by measuring fluorescence stimulation due to AT base pairs next to bulge in bulge binding assay; parameters: species or system Homo sapiens
Reported property: Kd

Smi | Value measured
CN[C@H]1[C@@H](O[C@@H]2c3cc4ccccc4cc3[C@@H]3[C@H]2CC[C@@]32C(=O)C=Cc3ccc(OC)cc32)O[C@H](C)[C@H](O)[C@@H]1O | 0.24 µM
CN[C@H]1[C@@H](O[C@H]2c3cc4ccccc4cc3[C@H]3[C@@H]2CC[C@]32C(=O)C=Cc3ccc(OC)cc32)O[C@H](C)[C@H](O)[C@@H]1O | 0.11 µM

====

Item-by-item account of Kd
experiment: Effect on DNA binding assessed as binding to DA12:BA14 synthetic oligo sequence code by measuring fluorescence stimulation due to AT base pairs next to bulge in bulge binding assay; parameters: species or system Homo sapiens

Smi | Kd [nM]
CN[C@H]1[C@@H](O[C@H]2c3cc4ccccc4cc3[C@H]3[C@@H]2CC[C@]32C(=O)C=Cc3ccc(OC)cc32)O[C@H](C)[C@H](O)[C@@H]1O | 600
CN[C@H]1[C@@H](O[C@@H]2c3cc4ccccc4cc3[C@@H]3[C@H]2CC[C@@]32C(=O)C=Cc3ccc(OC)cc32)O[C@H](C)[C@H](O)[C@@H]1O | 800

====

test: Effect on DNA binding assessed as binding to HT3AT synthetic oligo sequence code by measuring fluorescence stimulation due to AT base pairs next to bulge in bulge binding assay; design: species or system Homo sapiens
Item-by-item account of Kd
Reported property: Kd (µM)

Smi | Value measured
CN[C@H]1[C@@H](O[C@@H]2c3cc4ccccc4cc3[C@@H]3[C@H]2CC[C@@]32C(=O)C=Cc3ccc(OC)cc32)O[C@H](C)[C@H](O)[C@@H]1O | 13
CN[C@H]1[C@@H](O[C@H]2c3cc4ccccc4cc3[C@H]3[C@@H]2CC[C@]32C(=O)C=Cc3ccc(OC)cc32)O[C@H](C)[C@H](O)[C@@H]1O | 10

====

assay: Effect on DNA binding assessed as binding to HT3CGTA synthetic oligo sequence code by measuring fluorescence stimulation due to AT base pairs next to bulge in bulge binding assay; set-up: species or system Homo sapiens
Item-by-item account of Kd

Smi | Kd
CN[C@H]1[C@@H](O[C@H]2c3cc4ccccc4cc3[C@H]3[C@@H]2CC[C@]32C(=O)C=Cc3ccc(OC)cc32)O[C@H](C)[C@H](O)[C@@H]1O | 110 nM
CN[C@H]1[C@@H](O[C@@H]2c3cc4ccccc4cc3[C@@H]3[C@H]2CC[C@@]32C(=O)C=Cc3ccc(OC)cc32)O[C@H](C)[C@H](O)[C@@H]1O | 160 nM

====

experiment: Effect on DNA binding assessed as binding to HT3AGTC synthetic oligo sequence code by measuring fluorescence quenching due to GC base pairs next to bulge in bulge binding assay; set-up: species or system Homo sapiens

Smi | Kd / nM
CN[C@H]1[C@@H](O[C@H]2c3cc4ccccc4cc3[C@H]3[C@@H]2CC[C@]32C(=O)C=Cc3ccc(OC)cc32)O[C@H](C)[C@H](O)[C@@H]1O | 290

====

Item-by-item account of Kd
assay: Effect on DNA binding assessed as binding to HT3GGTC synthetic oligo sequence code by measuring fluorescence quenching due to GC base pairs next to bulge in bulge binding assay; set-up: species or system Homo sapiens

Smi | Readout units | Kd
CN[C@H]1[C@@H](O[C@@H]2c3cc4ccccc4cc3[C@@H]3[C@H]2CC[C@@]32C(=O)C=Cc3ccc(OC)cc32)O[C@H](C)[C@H](O)[C@@H]1O | nM | 160
CN[C@H]1[C@@H](O[C@H]2c3cc4ccccc4cc3[C@H]3[C@@H]2CC[C@]32C(=O)C=Cc3ccc(OC)cc32)O[C@H](C)[C@H](O)[C@@H]1O | nM | 100

====

experiment: Effect on DNA binding assessed as binding to HT3TGTA synthetic oligo sequence code by measuring fluorescence stimulation due to AT base pairs next to bulge in bulge binding assay; design: species or system Homo sapiens
pKd: −log10 of the molar value.
Item-by-item account of pKd

Smi | pKd
CN[C@H]1[C@@H](O[C@H]2c3cc4ccccc4cc3[C@H]3[C@@H]2CC[C@]32C(=O)C=Cc3ccc(OC)cc32)O[C@H](C)[C@H](O)[C@@H]1O | 5.95
CN[C@H]1[C@@H](O[C@@H]2c3cc4ccccc4cc3[C@@H]3[C@H]2CC[C@@]32C(=O)C=Cc3ccc(OC)cc32)O[C@H](C)[C@H](O)[C@@H]1O | 6.26

====

assay: Effect on DNA binding assessed as binding to HT3AGT synthetic oligo sequence code by measuring fluorescence stimulation due to AT base pairs next to bulge in bulge binding assay; design: species or system Homo sapiens
pKd: −log10 of the molar value.
Item-by-item account of pKd

Smi | pKd
CN[C@H]1[C@@H](O[C@H]2c3cc4ccccc4cc3[C@H]3[C@@H]2CC[C@]32C(=O)C=Cc3ccc(OC)cc32)O[C@H](C)[C@H](O)[C@@H]1O | 5.08
CN[C@H]1[C@@H](O[C@@H]2c3cc4ccccc4cc3[C@@H]3[C@H]2CC[C@@]32C(=O)C=Cc3ccc(OC)cc32)O[C@H](C)[C@H](O)[C@@H]1O | 5.39

====

assay: Effect on DNA binding assessed as binding to HT3AGCTT synthetic oligo sequence code by measuring fluorescence stimulation due to AT base pairs next to bulge in bulge binding assay; design: species or system Homo sapiens
Item-by-item account of Kd

Smi | Readout units | Kd
CN[C@H]1[C@@H](O[C@@H]2c3cc4ccccc4cc3[C@@H]3[C@H]2CC[C@@]32C(=O)C=Cc3ccc(OC)cc32)O[C@H](C)[C@H](O)[C@@H]1O | nM | 1700
CN[C@H]1[C@@H](O[C@H]2c3cc4ccccc4cc3[C@H]3[C@@H]2CC[C@]32C(=O)C=Cc3ccc(OC)cc32)O[C@H](C)[C@H](O)[C@@H]1O | nM | 2100

====

Item-by-item account of Kd
test: Effect on DNA binding assessed as binding to HT3GTTG synthetic oligo sequence code by measuring fluorescence quenching due to GC base pairs next to bulge in bulge binding assay; design: species or system Homo sapiens

Smi | Kd [nM]
CN[C@H]1[C@@H](O[C@@H]2c3cc4ccccc4cc3[C@@H]3[C@H]2CC[C@@]32C(=O)C=Cc3ccc(OC)cc32)O[C@H](C)[C@H](O)[C@@H]1O | 300
CN[C@H]1[C@@H](O[C@H]2c3cc4ccccc4cc3[C@H]3[C@@H]2CC[C@]32C(=O)C=Cc3ccc(OC)cc32)O[C@H](C)[C@H](O)[C@@H]1O | 160

====

assay: Effect on DNA binding assessed as binding to HT3GGTA synthetic oligo sequence code by measuring fluorescence quenching due to GC base pairs next to bulge in bulge binding assay; design: species or system Homo sapiens
Reported property: Kd (nM)

Smi | Reported property | Value measured
CN[C@H]1[C@@H](O[C@H]2c3cc4ccccc4cc3[C@H]3[C@@H]2CC[C@]32C(=O)C=Cc3ccc(OC)cc32)O[C@H](C)[C@H](O)[C@@H]1O | Kd | 290

====

test: Effect on DNA binding assessed as binding to HT3AGTT synthetic oligo sequence code by measuring fluorescence stimulation due to AT base pairs next to bulge in bulge binding assay; set-up: species or system Homo sapiens

Smi | Kd (nM)
CN[C@H]1[C@@H](O[C@@H]2c3cc4ccccc4cc3[C@@H]3[C@H]2CC[C@@]32C(=O)C=Cc3ccc(OC)cc32)O[C@H](C)[C@H](O)[C@@H]1O | 130
CN[C@H]1[C@@H](O[C@H]2c3cc4ccccc4cc3[C@H]3[C@@H]2CC[C@]32C(=O)C=Cc3ccc(OC)cc32)O[C@H](C)[C@H](O)[C@@H]1O | 80
